B1: POU domain, class 3, transcription factor 2, residues 262 to 338; numbered along this chain, P20265 (parent)
chain: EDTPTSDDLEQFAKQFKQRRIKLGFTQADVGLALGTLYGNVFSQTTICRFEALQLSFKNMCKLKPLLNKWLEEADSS

- Variants of: B1
- ASSAY TEXT: abundance fitness (aPCA) (normalised: wild type 0, dead -1); higher = more abundant; growth selection in yeast, the domain comes from the species named
- CONDITION SET: Homo sapiens
So basically, the class depends on measured abundance fitness, and the ranges are LOW (below -0.4), MID (-0.4 to below -0.05), HIGH (-0.05 or more)

- L32R: HIGH
- F12V: LOW
- T26P: LOW
- D75L: MID
- A13P: LOW
- C48H: HIGH
- F25N: LOW
- P65K: MID
- Q15K: HIGH
- F12S: LOW
- I21R: MID
- K22T: MID
- N40A: MID
- L53V: HIGH
- D75Y: HIGH
